target: EGFR L858R/C797S (Homo sapiens, UniProt P00533, C797S/L858R); test: Biochemical EGFR kinase inhibition assay (Lance Ultra TR-FRET), double mutant L858R/C797S; settings: Km ATP; read-out: IC50 L858R/C797S (nM) Km ATP
Sequence (P00533 25-1210 C797S/L858R): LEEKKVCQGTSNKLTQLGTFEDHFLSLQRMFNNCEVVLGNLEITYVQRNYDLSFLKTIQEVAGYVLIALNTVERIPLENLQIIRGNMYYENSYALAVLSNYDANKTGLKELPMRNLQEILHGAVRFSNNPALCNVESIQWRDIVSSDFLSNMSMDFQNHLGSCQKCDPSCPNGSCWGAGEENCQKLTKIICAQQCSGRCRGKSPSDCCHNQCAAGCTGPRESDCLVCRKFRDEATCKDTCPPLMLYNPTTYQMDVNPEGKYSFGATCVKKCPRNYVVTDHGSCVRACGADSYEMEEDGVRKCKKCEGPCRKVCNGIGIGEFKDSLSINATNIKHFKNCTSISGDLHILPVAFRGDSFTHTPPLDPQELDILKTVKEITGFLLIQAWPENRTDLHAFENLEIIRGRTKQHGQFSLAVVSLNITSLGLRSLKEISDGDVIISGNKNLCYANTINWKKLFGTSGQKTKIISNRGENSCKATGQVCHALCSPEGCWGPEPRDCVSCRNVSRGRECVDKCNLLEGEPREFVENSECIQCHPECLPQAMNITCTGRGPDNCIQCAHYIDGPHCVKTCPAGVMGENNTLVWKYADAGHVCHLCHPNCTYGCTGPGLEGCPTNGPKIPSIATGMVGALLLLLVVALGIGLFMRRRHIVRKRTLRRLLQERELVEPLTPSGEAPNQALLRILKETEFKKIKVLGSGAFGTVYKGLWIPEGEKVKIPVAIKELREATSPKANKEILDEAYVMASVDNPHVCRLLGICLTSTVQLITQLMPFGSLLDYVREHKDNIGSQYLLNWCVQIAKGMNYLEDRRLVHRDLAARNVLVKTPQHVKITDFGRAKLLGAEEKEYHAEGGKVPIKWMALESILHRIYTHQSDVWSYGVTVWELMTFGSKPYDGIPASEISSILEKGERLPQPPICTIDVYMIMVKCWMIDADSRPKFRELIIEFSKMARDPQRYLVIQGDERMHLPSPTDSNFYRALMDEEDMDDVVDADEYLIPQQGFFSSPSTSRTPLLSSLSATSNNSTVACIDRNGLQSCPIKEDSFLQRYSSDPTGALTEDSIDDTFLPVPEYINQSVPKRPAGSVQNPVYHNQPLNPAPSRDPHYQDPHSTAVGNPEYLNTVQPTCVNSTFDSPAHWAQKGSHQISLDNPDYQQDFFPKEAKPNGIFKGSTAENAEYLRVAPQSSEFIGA
Hi! Could you tag entries with IC50 below 3 nM as fulfilled, and those at or above as not fulfilled? Much appreciated.

As a guide, the following entries are already answered.
>>> label_value("Cn1ccc(C#Cc2cnc(Nc3ccnc(-c4cnn(S(=O)(=O)C5CC5)c4)n3)cc2N2CCC(NCCF)CC2)n1")
"not fulfilled"
>>> label_value("O=S(=O)(C1CC1)n1cc(-c2nccc(Nc3cc(N[C@H]4CCC[C@H](O)C4)c(C#Cc4cnn(C(F)(F)F)c4)cn3)n2)cn1")
"not fulfilled"
>>> label_value("Cn1ccc(C#Cc2cnc(Nc3ccnc(-c4cnn(S(=O)(=O)C5CC5)c4)n3)cc2N2CCC(C)(CO)CC2)n1")
"fulfilled"
>>> label_value("Cn1cc(C#Cc2cnc(Nc3ccnc(-c4cnn(S(=O)(=O)C5CC5)c4)n3)cc2N[C@H]2CCC[C@H](O)C2)cn1")
"fulfilled"
>>> label_value("CN1CCN(c2cc(Nc3ccnc(-c4cnn(S(=O)(=O)C5CC5)c4)n3)ncc2C#Cc2cnn(C)c2)CC1")
"not fulfilled"

Q. Decide: IC50 of CC1(CO)CCN(c2cc(Nc3ccnc(-c4cnn(S(=O)(=O)C5CC5)c4)n3)ncc2C#Cc2cnn(C3CC3)c2)CC1 strictly below 3 nM?
A. not fulfilled

Q. Given the entry CN(C)CCn1cc(C#Cc2cnc(Nc3ccnc(-c4cnn(S(=O)(=O)C5CC5)c4)n3)cc2N2CCC(F)(CO)CC2)cn1 , would its reported IC50 be below 3 nM?
A. fulfilled

Q. Please determine if CN(C)CCCn1cc(C#Cc2cnc(Nc3ccnc(-c4cnn(S(=O)(=O)C5CC5)c4)n3)cc2N2CCC(C)(CO)CC2)cn1 is below 3 nM in terms of IC50.
A. fulfilled

Q. Is it true that IC50 reported for O=S(=O)(C1CC1)n1cc(-c2nccc(Nc3cc(N4CC[C@@H](O)C4)c(C#Cc4cnn(CCF)c4)cn3)n2)cn1 is less than 3 nM?
A. not fulfilled

Q. Field: below-cutoff. Rule: recorded IC50 strictly less than 3 nM. Subject: CNCC1(C)CCN(c2cc(Nc3ccnc(-c4cnn(S(=O)(=O)C5CC5)c4)n3)ncc2C#Cc2cnn(C)c2)CC1
A. fulfilled

Q. Please indicate whether the reported IC50 of O=S(=O)(C1CC1)n1cc(-c2nccc(Nc3cc(N4CCC(CO)CC4)c(C#Cc4cnn(CCF)c4)cn3)n2)cn1 is strictly below 3 nM.
A. not fulfilled

Q. Is the reported IC50 for CC1(CO)CCN(c2cc(Nc3ccnc(-c4cnn(S(=O)(=O)C5CC5)c4)n3)ncc2C#Cc2cnn(CC3CC3)c2)CC1 strictly below 3 nM?
A. not fulfilled

Q. Threshold test, IC50 < 3 nM: O=S(=O)(C1CC1)n1cc(-c2nccc(Nc3cc(N4CCC(NCCO)CC4)c(C#Cc4cnn(C5CCOCC5)c4)cn3)n2)cn1
A. not fulfilled

Q. Lab note: confirm whether the reported IC50 for this molecule is below 3 nM, equality not counting. molecule: CNC1CCN(c2cc(Nc3ccnc(-c4cnn(S(=O)(=O)C5CC5)c4)n3)ncc2C#Cc2ccn(C)n2)CC1
A. not fulfilled

Q. Determine whether this molecule shows IC50 lower than 3 nM (ties excluded): CN(C)C[C@H]1CC[C@H](COc2cc(Nc3ccnc(-c4cnn(S(=O)(=O)C5CC5)c4)n3)ncc2C#Cc2cccnc2)CC1
A. not fulfilled

Q. Find out if reported IC50 for CN(C)C[C@H]1CC[C@H](CNc2cc(Nc3ccnc(-c4cnn(S(=O)(=O)C5CC5)c4)n3)ncc2C#Cc2cnn(C)c2)CC1 is less than 3 nM
A. not fulfilled

Q. Lab note: IC50 threshold 3 nM. Does this molecule come in strictly under it? CN(C)CCn1cc(C#Cc2cnc(Nc3ccnc(-c4cnn(S(=O)(=O)C5CC5)c4)n3)cc2N2CCCC(CO)C2)cn1 (centres unmarked)
A. fulfilled

Q. # check: IC50 < 3 nM for CN(C)Cc1ccc(CNc2cc(Nc3ccnc(-c4cnn(S(=O)(=O)C5CC5)c4)n3)ncc2C#Cc2cnn(C)c2)cc1
A. not fulfilled

Q. Could you please tell me whether IC50 recorded for CN(C)C[C@H]1CC[C@H](COc2cc(Nc3ccnc(-c4cnn(S(=O)(=O)C5CC5)c4)n3)ncc2C#Cc2cnn(C)c2)CC1 is less than 3 nM?
A. not fulfilled

Q. Is IC50 strictly under 3 nM for the entry CC(=O)N1CCC(n2cc(C#Cc3cnc(Nc4ccnc(-c5cnn(S(=O)(=O)C6CC6)c5)n4)cc3N3CCC(=O)CC3)cn2)CC1 ?
A. not fulfilled

Q. Lab note: confirm whether the reported IC50 for this molecule is below 3 nM, equality not counting. molecule: Cn1ccc(C#Cc2cnc(Nc3ccnc(-c4cnn(S(=O)(=O)C5CC5)c4)n3)cc2N[C@H]2CC[C@@H](O)CC2)n1
A. not fulfilled

Q. Take the molecule CN1CCn2ncc(C#Cc3cnc(Nc4ccnc(-c5cnn(S(=O)(=O)C6CC6)c5)n4)cc3N3CCC(C)(CO)CC3)c2C1 and say whether its IC50 is less than 3 nM.
A. fulfilled

Q. Quick check: IC50 of CC(=O)N1CCC(n2cc(C#Cc3cnc(Nc4ccnc(-c5cnn(S(=O)(=O)C6CC6)c5)n4)cc3N3CCC(F)(CO)CC3)cn2)CC1 under 3 nM?
A. fulfilled

Q. Lab note: confirm whether the reported IC50 for this molecule is below 3 nM, equality not counting. molecule: CC1(CO)CCN(c2cc(Nc3ccnc(-c4cnn(S(=O)(=O)C5CC5)c4)n3)ncc2C#Cc2cnn(CCN3CCOCC3)c2)CC1
A. fulfilled

Q. Hello, is IC50 of the following molecule strictly smaller than 3 nM? CN(C)C(C)(C)CNC1CCN(c2cc(Nc3ccnc(-c4cnn(S(=O)(=O)C5CC5)c4)n3)ncc2C#Cc2cnn(C)c2)CC1
A. not fulfilled

Q. Quick check: IC50 of CN(C)CCNC1CCN(c2cc(Nc3ccnc(-c4cnn(S(=O)(=O)C5CC5)c4)n3)ncc2C#Cc2cnn(C(F)(F)F)c2)CC1 under 3 nM?
A. fulfilled

====

biological target: EGFR L858R/C797S (Homo sapiens, UniProt P00533, C797S/L858R); test: Biochemical EGFR kinase inhibition assay (Lance Ultra TR-FRET), double mutant L858R/C797S; conditions: IC50 L858R/C797S (nM), 100 μM ATP
METRIC_NAME: IC50 (nM)
Use nM as the unit, but write only the number.

Would you please look over these solved cases?
>>> reported_measurement("CN1CCN(Cc2ccc(C#Cc3cnc(Nc4ccnc(-c5cnn(S(=O)(=O)C6CC6)c5)n4)cc3N[C@H]3CC[C@@H](CO)CC3)cc2)CC1")
7.7
>>> reported_measurement("O=S(=O)(C1CC1)n1cc(-c2nccc(Nc3cc(N4CCC(C5(O)CC5)CC4)c(C#Cc4cnn(C(F)(F)F)c4)cn3)n2)cn1")
45.5
>>> reported_measurement("O=S(=O)(C1CC1)n1cc(-c2nccc(Nc3cc(N4CCC(F)(CO)CC4)c(C#Cc4cnn(C5CCOCC5)c4)cn3)n2)cn1")
8.1
>>> reported_measurement("CN(C)C[C@@H]1CCCN(c2cc(Nc3ccnc(-c4cnn(S(=O)(=O)C5CC5)c4)n3)ncc2C#Cc2cnn(C)c2)C1")
49.6
>>> reported_measurement("Cn1cc(C#Cc2cnc(Nc3ccnc(-c4cnn(S(=O)(=O)C5CC5)c4)n3)cc2N2CCCC(O)C2)cn1 (stereo not shown)")
24.1
>>> reported_measurement("CC1(CO)CCN(c2cc(Nc3ccnc(-c4cnn(S(=O)(=O)C5CC5)c4)n3)ncc2C#CC2CCOCC2)CC1")
13.4
>>> reported_measurement("Cn1ncc(C#Cc2cnc(Nc3ccnc(-c4cnn(S(=O)(=O)C5CC5)c4)n3)cc2N[C@H]2CC[C@@H](O)CC2)c1C1CC1")
65
>>> reported_measurement("Cn1cnc(C#Cc2cnc(Nc3ccnc(-c4cnn(S(=O)(=O)C5CC5)c4)n3)cc2NCC(C)(C)CO)c1")
286
>>> reported_measurement("CC(C)(O)[C@H]1CC[C@@H](Nc2cc(Nc3ccnc(-c4cnn(S(=O)(=O)C5CC5)c4)n3)ncc2C#Cc2cnn(CC(F)F)c2)CC1")
89.8
>>> reported_measurement("CN(C)CCCn1cc(C#Cc2cnc(Nc3ccnc(-c4cnn(S(=O)(=O)C5CC5)c4)n3)cc2N2CCC(NCCF)CC2)cn1")
23.4

Q. Would you mind telling me what IC50 value was observed for O=S(=O)(C1CC1)n1cc(-c2nccc(Nc3cc(N4CCC(O)CC4)c(C#Cc4cnn(CCF)c4)cn3)n2)cn1 ?
A. 28.1

Q. What value of IC50 has been recorded for this entry: CN(C)C[C@H]1CC[C@H](COc2cc(Nc3ccnc(-c4cnn(S(=O)(=O)C5CC5)c4)n3)ncc2C#Cc2cnn(C)c2)CC1
A. 24.7

Q. What measured IC50 goes with CN1CCC(C#Cc2cnc(Nc3ccnc(-c4cnn(S(=O)(=O)C5CC5)c4)n3)cc2NC2CCC(O)CC2)C1 (stereo not shown) ?
A. 6
